The origin of these recorded values is ChEMBL document CHEMBL2321870.

assayed system: Nuclear factor NF-kappa-B p105 subunit (Homo sapiens, UniProt P19838)
Sequence (P19838 1-433 limits assumed): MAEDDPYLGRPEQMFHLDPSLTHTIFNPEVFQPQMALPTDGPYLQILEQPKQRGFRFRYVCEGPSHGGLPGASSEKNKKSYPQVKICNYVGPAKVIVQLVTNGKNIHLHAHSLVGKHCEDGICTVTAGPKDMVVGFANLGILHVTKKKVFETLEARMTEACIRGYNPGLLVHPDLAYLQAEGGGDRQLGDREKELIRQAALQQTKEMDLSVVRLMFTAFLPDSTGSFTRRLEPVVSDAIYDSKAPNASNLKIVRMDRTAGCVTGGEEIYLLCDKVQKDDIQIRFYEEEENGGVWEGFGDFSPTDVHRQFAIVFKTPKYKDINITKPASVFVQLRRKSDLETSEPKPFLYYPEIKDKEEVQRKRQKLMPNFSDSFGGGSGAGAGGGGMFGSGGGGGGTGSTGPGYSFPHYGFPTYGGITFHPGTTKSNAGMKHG
experiment summary: Inhibition of human NF-kappaB p50/DNA interaction using 32P-labeled oligonucleotides as substrate preincubated for 20 mins before substrate addition measured after 20 mins by electrophoretic mobility shift assay
pEC50: −log10 of the molar value.
Below, each of the compounds is paired with its reported pEC50 value.

{"columns": ["compound", "assayed system", "prefix operator", "pEC50"],
 "data": [
  ["Cc1c(CC(=O)Nc2ccc(O)cc2)c(=O)oc2c(C)c3oc4c(c3cc12)CCCC4", "Nuclear factor NF-kappa-B p105 subunit (Homo sapiens, UniProt P19838)", "=", 3.15],
  ["Cc1c(CC(=O)Nc2cccc(C(F)(F)F)c2)c(=O)oc2c(C)c3oc4c(c3cc12)CCCC4", "Nuclear factor NF-kappa-B p105 subunit (Homo sapiens, UniProt P19838)", "=", 2.52],
  ["Cc1oc2c(C)c3oc(=O)c(CCC(=O)NC(Cc4ccccc4)C(=O)O)c(C)c3cc2c1C (racemic)", "Nuclear factor NF-kappa-B p105 subunit (Homo sapiens, UniProt P19838)", "=", 3.00],
  ["Cc1c(CCC(=O)NC(Cc2ccccc2)C(=O)O)c(=O)oc2cc3occ(C(C)(C)C)c3cc12 (racemic)", "Nuclear factor NF-kappa-B p105 subunit (Homo sapiens, UniProt P19838)", "=", 4.00],
  ["Cc1c(CCC(=O)Nc2ccc(C(=O)O)cc2)c(=O)oc2c(C)c3oc4c(c3cc12)CCCC4", "Nuclear factor NF-kappa-B p105 subunit (Homo sapiens, UniProt P19838)", "=", 4.22],
  ["Cc1c(CCC(=O)NCc2ccccc2Cl)c(=O)oc2c(C)c3occ(C(C)(C)C)c3cc12", "Nuclear factor NF-kappa-B p105 subunit (Homo sapiens, UniProt P19838)", "=", 2.40],
  ["Cc1c(CC(=O)NC(Cc2ccccc2)C(=O)O)c(=O)oc2c(C)c3oc4c(c3cc12)CCCC4 (racemic)", "Nuclear factor NF-kappa-B p105 subunit (Homo sapiens, UniProt P19838)", "=", 3.00],
  ["Cc1oc2cc3oc(=O)c(CC(=O)Nc4ccc(C(=O)O)cc4)c(C)c3cc2c1C", "Nuclear factor NF-kappa-B p105 subunit (Homo sapiens, UniProt P19838)", "=", 4.40],
  ["Cc1c(CCC(=O)Nc2cccc(C(F)(F)F)c2)c(=O)oc2c(C)c3oc4c(c3cc12)CCCC4", "Nuclear factor NF-kappa-B p105 subunit (Homo sapiens, UniProt P19838)", "<", 2.00],
  ["Cc1oc2c(C)c3oc(=O)c(CC(=O)Nc4cccc(C(=O)O)c4)c(C)c3cc2c1C", "Nuclear factor NF-kappa-B p105 subunit (Homo sapiens, UniProt P19838)", "=", 3.22],
  ["Cc1oc2c(C)c3oc(=O)c(CC(=O)O)c(C)c3cc2c1C", "Nuclear factor NF-kappa-B p105 subunit (Homo sapiens, UniProt P19838)", "=", 2.22],
  ["Cc1c(CC(=O)NC(Cc2ccccc2)C(=O)O)c(=O)oc2cc3oc4c(c3cc12)CCCC4 (racemic)", "Nuclear factor NF-kappa-B p105 subunit (Homo sapiens, UniProt P19838)", "=", 4.10],
  ["Cc1c(CC(=O)Nc2ccc(C(=O)O)cc2)c(=O)oc2c(C)c3oc4c(c3cc12)CCCC4", "Nuclear factor NF-kappa-B p105 subunit (Homo sapiens, UniProt P19838)", "=", 4.00],
  ["Cc1c(CC(=O)O)c(=O)oc2c(C)c3occ(C(C)(C)C)c3cc12", "Nuclear factor NF-kappa-B p105 subunit (Homo sapiens, UniProt P19838)", "=", 3.10],
  ["Cc1c(CC(=O)NC(Cc2ccccc2)C(=O)O)c(=O)oc2cc3occ(C(C)(C)C)c3cc12 (stereo not drawn)", "Nuclear factor NF-kappa-B p105 subunit (Homo sapiens, UniProt P19838)", "=", 3.22],
  ["Cc1oc2c(C)c3oc(=O)c(CC(=O)Nc4ccc(C(=O)O)cc4)c(C)c3cc2c1C", "Nuclear factor NF-kappa-B p105 subunit (Homo sapiens, UniProt P19838)", "=", 4.00],
  ["Cc1c(CCC(=O)Nc2ccc(O)cc2)c(=O)oc2c(C)c3oc4c(c3cc12)CCCC4", "Nuclear factor NF-kappa-B p105 subunit (Homo sapiens, UniProt P19838)", "=", 2.52],
  ["Cc1oc2cc3oc(=O)c(CCC(=O)Nc4cccc(C(=O)O)c4)c(C)c3cc2c1C", "Nuclear factor NF-kappa-B p105 subunit (Homo sapiens, UniProt P19838)", "=", 3.22]
]}
